Data provenance: patent US7786141B2

Here, each record is paired with measured Emax data.
- TARGET OR SYSTEM: M4 muscarinic receptor (Homo sapiens, UniProt P08173)
- Construct: expressed in transfected cells; host or cells: CHO (M4-CHO)
- Sequence (P08173 1-479): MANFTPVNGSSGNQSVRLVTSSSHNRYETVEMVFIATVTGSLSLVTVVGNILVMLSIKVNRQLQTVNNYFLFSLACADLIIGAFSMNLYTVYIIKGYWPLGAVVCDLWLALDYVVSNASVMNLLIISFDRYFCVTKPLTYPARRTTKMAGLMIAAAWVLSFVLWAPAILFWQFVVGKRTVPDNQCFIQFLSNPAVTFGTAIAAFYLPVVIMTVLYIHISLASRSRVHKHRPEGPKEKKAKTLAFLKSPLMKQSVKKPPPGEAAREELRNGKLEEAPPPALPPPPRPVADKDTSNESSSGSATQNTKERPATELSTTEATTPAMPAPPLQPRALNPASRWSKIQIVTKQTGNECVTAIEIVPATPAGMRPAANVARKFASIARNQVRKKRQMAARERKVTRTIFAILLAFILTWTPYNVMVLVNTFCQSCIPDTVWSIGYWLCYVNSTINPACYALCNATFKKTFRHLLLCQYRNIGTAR
- PROTOCOL TEXT: Functional mobilization of intracellular calcium (FLIPR) in M4-CHO cells
- Assay type: cell-based
- CONDITION DETAILS: M4 receptor, calcium mobilization; read-out: M4 Efficacy

Example entries begin here.
[[record]]
molecule = "COC(=O)N1CCCC(N2CCC3(CC2)CN(C(C)=O)c2ccc(F)cc23)CC1 (stereo not shown)"
target_or_system = "M4 muscarinic receptor (Homo sapiens, UniProt P08173)"
assay_value = "> 85%"

[[record]]
molecule = "CCOC(=O)N1C2CCC1CC(N1CCC3(CC1)CN(C(=O)NC(C)C)c1ccc(F)cc13)C2 (stereo not shown)"
target_or_system = "M4 muscarinic receptor (Homo sapiens, UniProt P08173)"
assay_value = "65 to 85%"

[[record]]
molecule = "CCCOC(=O)N1CC2(CCN(C3CCN(C(=O)OCC)CC3)CC2)c2cc(F)ccc21"
target_or_system = "M4 muscarinic receptor (Homo sapiens, UniProt P08173)"
assay_value = "< 65%"

[[record]]
molecule = "COCCOC(=O)N1CC2(CCN(C3CC4CCC(C3)N4C(=O)O[C@H]3CCOC3)CC2)c2cc(F)ccc21 (stereo partly shown)"
target_or_system = "M4 muscarinic receptor (Homo sapiens, UniProt P08173)"
assay_value = "< 65%"

[[record]]
molecule = "O=C(OC1CCC1)N1C2CCC1CC(N1CCC3(CC1)C(=O)Nc1ccccc13)C2 (stereo not shown)"
target_or_system = "M4 muscarinic receptor (Homo sapiens, UniProt P08173)"
assay_value = "< 65%"

[[record]]
molecule = "Cc1ccc2c(c1)C1(CCN(C3CC4CCC3C4)CC1)CN2C(=O)C1CC1 (stereo not shown)"
target_or_system = "M4 muscarinic receptor (Homo sapiens, UniProt P08173)"
assay_value = "65 to 85%"

[[record]]
molecule = "CC(=O)N1CC2(CCN(CC3CCN(C(=O)O[C@@H]4CCOC4)CC3)CC2)c2cc(F)ccc21"
target_or_system = "M4 muscarinic receptor (Homo sapiens, UniProt P08173)"
assay_value = "> 85%"

[[record]]
molecule = "O=C(C1CC1)N1CC2(CCN(C3CC4CCC(C3)N4C(=O)O[C@@H]3CCOC3)CC2)c2cc(F)ccc21 (stereo partly shown)"
target_or_system = "M4 muscarinic receptor (Homo sapiens, UniProt P08173)"
assay_value = "< 65%"

[[record]]
molecule = "Clc1ccc2c(c1)C1(CCN(C3CCCCC3)CC1)CN2"
target_or_system = "M4 muscarinic receptor (Homo sapiens, UniProt P08173)"
assay_value = "> 85%"

[[record]]
molecule = "CC(=O)N1CC2(CCN(C3CCCCC3C)CC2)c2cc(F)ccc21 (stereo not shown)"
target_or_system = "M4 muscarinic receptor (Homo sapiens, UniProt P08173)"
assay_value = "65 to 85%"


Give the measured Emax of CCOC(=O)N1C2CCC1CC(N1CCC3(CC1)CNc1ccc(Cl)cc13)C2 (stereo not shown) .
> 85%

Returns the measured Emax for the input molecule. Input: CCOC(=O)N1CCC(N2CCC3(CC2)CN(C(=O)N2CCCC2)c2ccc(F)cc23)CC1
< 65%

Quick check: Emax of Cc1ccc2c(c1)C1(CCN(C3CC4CCC3C4)CC1)CN2C(=O)OC(C)(C)C (stereo not shown) ?
< 65%

So what's the measured Emax for this one? CCOC(=O)N1C2CCC1CC(N1CCC3(CC1)CN(C(C)=O)c1ccccc13)C2 (stereo not shown)
< 65%

Entry under review: O=C(O[C@H]1CCOC1)N1C2CCC1CC(N1CCC3(CC1)C(=O)Nc1ccccc13)C2 (stereo partly shown) . Reported Emax?
< 65%

Look at this molecule and give its reported Emax. CCOC(=O)N1CCC(N2CCC3(CC2)CN(C(=O)C2CC2)c2ccc(F)cc23)CC1
> 85%

###

Measured Emax of individual entries
- TARGET OR SYSTEM: M1 muscarinic receptor (Homo sapiens, UniProt P11229)
- Construct: expressed in transfected cells; host or cells: CHO (M1-CHO)
- Sequence (P11229 whole entry): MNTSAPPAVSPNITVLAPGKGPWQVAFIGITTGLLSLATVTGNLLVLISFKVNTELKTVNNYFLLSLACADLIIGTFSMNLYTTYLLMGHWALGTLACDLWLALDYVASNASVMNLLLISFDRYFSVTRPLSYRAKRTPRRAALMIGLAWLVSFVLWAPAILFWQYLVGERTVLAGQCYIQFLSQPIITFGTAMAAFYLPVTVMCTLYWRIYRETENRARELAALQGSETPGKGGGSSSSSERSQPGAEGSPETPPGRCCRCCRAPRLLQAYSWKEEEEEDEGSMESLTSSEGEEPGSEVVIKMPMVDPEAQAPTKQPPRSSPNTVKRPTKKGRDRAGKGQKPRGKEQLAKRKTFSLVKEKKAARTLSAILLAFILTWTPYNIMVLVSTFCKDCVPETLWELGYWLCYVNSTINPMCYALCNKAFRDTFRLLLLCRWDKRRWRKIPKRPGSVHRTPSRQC
- PROTOCOL TEXT: Functional mobilization of intracellular calcium (FLIPR) in M1-CHO cells
- Assay type: cell-based
- CONDITION DETAILS: M1 receptor, calcium mobilization; read-out: M1 Efficacy
- Experimental: Functional Mobilization of Intracellular Calcium to Determine Muscarinic Receptor Activity: […] Compounds are prepared at a 2× fold concentration in a 96-well plate (round bottom, Costar Corning cat# 3656), by reconstituting the pre-spotted compounds in bath 1 containing 1 mM probenecid. […] In both assay modes, the fluorescence is recorded for 60 sec (excitation wavelength is […] and emission wavelength 540 nm) using the FLIPR 3 instrument. […]

[[record]]
molecule = "O=C(O[C@@H]1CCOC1)N1CC2(CCN(C3CC4CCC(C3)N4C(=O)O[C@H]3CCOC3)CC2)c2cc(F)ccc21 (some centres unmarked)"
assay_value = "65 to 85%"

[[record]]
molecule = "CCOC(=O)N1CCC(N2CCC3(CC2)C(=O)Nc2ccccc23)CC1"
assay_value = "65 to 85%"

[[record]]
molecule = "CCOC(=O)N1CCC(N2CCC3(CC2)CN(C(=O)c2ccccn2)c2ccc(F)cc23)CC1"
assay_value = "< 65%"


Any idea what Emax was measured for CC(C)OC(=O)N1CCC(N2CCC3(CC2)CN(C(=O)N(C)C)c2ccc(F)cc23)CC1 ?
> 85%

# query: Emax of entry CCOC(=O)N1C2CCC1CC(N1CCC3(CC1)CN(C(C)=O)c1c(F)cccc13)C2 (centres unmarked)
< 65%

Any idea what its Emax is? The molecule is O=C(O[C@H]1CCOC1)N1C2CCC1CC(N1CCC3(CCc4ccccc43)CC1)C2 (some centres unmarked)
65 to 85%

Find the recorded Emax belonging to CC(=O)N[C@H]1CC2(CCN(CC3CCCCC3)CC2)c2ccccc21 and report it.
> 85%

# input molecule: Clc1ccc2c(c1)C1(CCN(CC3CC4C=CC3C4)CC1)CN2 (centres unmarked) ; wanted: its Emax
65 to 85%

###

- TARGET OR SYSTEM: M4 muscarinic receptor (Homo sapiens, UniProt P08173)
- Construct: expressed in transfected cells; host or cells: CHO (M4-CHO)
- PROTOCOL TEXT: Functional mobilization of intracellular calcium (FLIPR) in M4-CHO cells
- Type: cell-based
- CONDITION DETAILS: M4 receptor, calcium mobilization; read-out: M4 Efficacy
Item-by-item account of Emax

Study these solved cases before continuing.
[[record]]
compound = "CC(=O)N[C@@H]1CC2(CCN([C@H]3C[C@@H]4CC[C@H]3C4)CC2)c2ccccc21"
assay_value = "65 to 85%"

[[record]]
compound = "CCOC(=O)N1C2CCC1CC(N1CCC3(CC1)C(=O)N(C)c1ccccc13)C2 (stereo not shown)"
assay_value = "> 85%"

[[record]]
compound = "CCOC(=O)N1CCC(N2CCC3(CC2)CNc2ccccc23)CC1"
assay_value = "> 85%"


// next item, Emax requested
Form field - read-out: Emax; system: M4 muscarinic receptor (Homo sapiens, UniProt P08173); submitted item: CCCOC(=O)N1CCC(N2CCC3(CC2)CN(C(C)=O)c2ccc(C)cc23)CC1
65 to 85%

###

Listing: pEC50 of selected molecules
- TARGET OR SYSTEM: M4 muscarinic receptor (Homo sapiens, UniProt P08173)
- Construct: expressed in transfected cells; host or cells: CHO (M4-CHO)
- Sequence (P08173 1-479): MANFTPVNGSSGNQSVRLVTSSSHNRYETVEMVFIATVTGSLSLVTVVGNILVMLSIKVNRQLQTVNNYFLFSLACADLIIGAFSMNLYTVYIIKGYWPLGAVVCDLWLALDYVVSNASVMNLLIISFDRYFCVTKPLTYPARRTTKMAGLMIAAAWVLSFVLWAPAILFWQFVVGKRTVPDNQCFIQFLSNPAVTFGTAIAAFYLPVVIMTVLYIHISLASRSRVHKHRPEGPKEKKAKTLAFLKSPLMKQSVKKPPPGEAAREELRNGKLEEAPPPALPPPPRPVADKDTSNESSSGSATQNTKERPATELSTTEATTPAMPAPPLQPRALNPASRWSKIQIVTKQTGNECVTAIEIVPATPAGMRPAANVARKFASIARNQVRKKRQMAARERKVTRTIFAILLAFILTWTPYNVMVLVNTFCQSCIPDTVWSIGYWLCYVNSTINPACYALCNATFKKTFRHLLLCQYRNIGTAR
- PROTOCOL TEXT: Functional mobilization of intracellular calcium (FLIPR) in M4-CHO cells
- Assay type: cell-based
- CONDITION DETAILS: M4-CHO cells, calcium mobilization (FLIPR)
pEC50: −log10 of the molar value.

// known answers, use as guide
[[record]]
molecule = "COCCOC(=O)N1CCC(CN2CCC3(CC2)C[C@H](NC(C)=O)c2ccccc23)CC1"
assay_value = "< 6.00"

[[record]]
molecule = "Fc1ccc2c(c1)C1(CCN(C[C@H]3C[C@H]4C=C[C@H]3C4)CC1)CO2"
assay_value = "< 6.00"

[[record]]
molecule = "c1ccc2c(c1)NCC21CCN(C2CCCCC2)CC1"
assay_value = "> 7.00"

[[record]]
molecule = "CC(=O)NC1CC2(CCN(C[C@H]3C[C@H]4C=C[C@H]3C4)CC2)c2ccccc21 (stereo partly shown)"
assay_value = "< 6.00"

[[record]]
molecule = "CCOC(=O)N1C2CCC1CC(N1CCC3(CC1)CN(C(=O)OC1CCC1)c1ccc(F)cc13)C2 (stereo not shown)"
assay_value = "> 7.00"


Under M4 muscarinic receptor (Homo sapiens, UniProt P08173): pEC50 value of c1ccc2c(c1)NCC21CCN(C2CC3CCC(C3)C2)CC1 (stereo not shown) ?
< 6.00

# value lookup — system M4 muscarinic receptor (Homo sapiens, UniProt P08173), readout pEC50, item CS(=O)(=O)N1CC2(CCN(C3CC4CCC(C3)N4C(=O)O[C@H]3CCOC3)CC2)c2cc(F)ccc21 (stereo partly shown)
< 6.00
